# system-name: G2019S LRRK2 (Homo sapiens, UniProt Q5S007, G2019S)
# Construct: expressed in transfected cells; host or cells: HEK293 (ATCC CRL-1573), transient transfection, ubiquitin promoter
# Sequence (Q5S007 whole entry G2019S): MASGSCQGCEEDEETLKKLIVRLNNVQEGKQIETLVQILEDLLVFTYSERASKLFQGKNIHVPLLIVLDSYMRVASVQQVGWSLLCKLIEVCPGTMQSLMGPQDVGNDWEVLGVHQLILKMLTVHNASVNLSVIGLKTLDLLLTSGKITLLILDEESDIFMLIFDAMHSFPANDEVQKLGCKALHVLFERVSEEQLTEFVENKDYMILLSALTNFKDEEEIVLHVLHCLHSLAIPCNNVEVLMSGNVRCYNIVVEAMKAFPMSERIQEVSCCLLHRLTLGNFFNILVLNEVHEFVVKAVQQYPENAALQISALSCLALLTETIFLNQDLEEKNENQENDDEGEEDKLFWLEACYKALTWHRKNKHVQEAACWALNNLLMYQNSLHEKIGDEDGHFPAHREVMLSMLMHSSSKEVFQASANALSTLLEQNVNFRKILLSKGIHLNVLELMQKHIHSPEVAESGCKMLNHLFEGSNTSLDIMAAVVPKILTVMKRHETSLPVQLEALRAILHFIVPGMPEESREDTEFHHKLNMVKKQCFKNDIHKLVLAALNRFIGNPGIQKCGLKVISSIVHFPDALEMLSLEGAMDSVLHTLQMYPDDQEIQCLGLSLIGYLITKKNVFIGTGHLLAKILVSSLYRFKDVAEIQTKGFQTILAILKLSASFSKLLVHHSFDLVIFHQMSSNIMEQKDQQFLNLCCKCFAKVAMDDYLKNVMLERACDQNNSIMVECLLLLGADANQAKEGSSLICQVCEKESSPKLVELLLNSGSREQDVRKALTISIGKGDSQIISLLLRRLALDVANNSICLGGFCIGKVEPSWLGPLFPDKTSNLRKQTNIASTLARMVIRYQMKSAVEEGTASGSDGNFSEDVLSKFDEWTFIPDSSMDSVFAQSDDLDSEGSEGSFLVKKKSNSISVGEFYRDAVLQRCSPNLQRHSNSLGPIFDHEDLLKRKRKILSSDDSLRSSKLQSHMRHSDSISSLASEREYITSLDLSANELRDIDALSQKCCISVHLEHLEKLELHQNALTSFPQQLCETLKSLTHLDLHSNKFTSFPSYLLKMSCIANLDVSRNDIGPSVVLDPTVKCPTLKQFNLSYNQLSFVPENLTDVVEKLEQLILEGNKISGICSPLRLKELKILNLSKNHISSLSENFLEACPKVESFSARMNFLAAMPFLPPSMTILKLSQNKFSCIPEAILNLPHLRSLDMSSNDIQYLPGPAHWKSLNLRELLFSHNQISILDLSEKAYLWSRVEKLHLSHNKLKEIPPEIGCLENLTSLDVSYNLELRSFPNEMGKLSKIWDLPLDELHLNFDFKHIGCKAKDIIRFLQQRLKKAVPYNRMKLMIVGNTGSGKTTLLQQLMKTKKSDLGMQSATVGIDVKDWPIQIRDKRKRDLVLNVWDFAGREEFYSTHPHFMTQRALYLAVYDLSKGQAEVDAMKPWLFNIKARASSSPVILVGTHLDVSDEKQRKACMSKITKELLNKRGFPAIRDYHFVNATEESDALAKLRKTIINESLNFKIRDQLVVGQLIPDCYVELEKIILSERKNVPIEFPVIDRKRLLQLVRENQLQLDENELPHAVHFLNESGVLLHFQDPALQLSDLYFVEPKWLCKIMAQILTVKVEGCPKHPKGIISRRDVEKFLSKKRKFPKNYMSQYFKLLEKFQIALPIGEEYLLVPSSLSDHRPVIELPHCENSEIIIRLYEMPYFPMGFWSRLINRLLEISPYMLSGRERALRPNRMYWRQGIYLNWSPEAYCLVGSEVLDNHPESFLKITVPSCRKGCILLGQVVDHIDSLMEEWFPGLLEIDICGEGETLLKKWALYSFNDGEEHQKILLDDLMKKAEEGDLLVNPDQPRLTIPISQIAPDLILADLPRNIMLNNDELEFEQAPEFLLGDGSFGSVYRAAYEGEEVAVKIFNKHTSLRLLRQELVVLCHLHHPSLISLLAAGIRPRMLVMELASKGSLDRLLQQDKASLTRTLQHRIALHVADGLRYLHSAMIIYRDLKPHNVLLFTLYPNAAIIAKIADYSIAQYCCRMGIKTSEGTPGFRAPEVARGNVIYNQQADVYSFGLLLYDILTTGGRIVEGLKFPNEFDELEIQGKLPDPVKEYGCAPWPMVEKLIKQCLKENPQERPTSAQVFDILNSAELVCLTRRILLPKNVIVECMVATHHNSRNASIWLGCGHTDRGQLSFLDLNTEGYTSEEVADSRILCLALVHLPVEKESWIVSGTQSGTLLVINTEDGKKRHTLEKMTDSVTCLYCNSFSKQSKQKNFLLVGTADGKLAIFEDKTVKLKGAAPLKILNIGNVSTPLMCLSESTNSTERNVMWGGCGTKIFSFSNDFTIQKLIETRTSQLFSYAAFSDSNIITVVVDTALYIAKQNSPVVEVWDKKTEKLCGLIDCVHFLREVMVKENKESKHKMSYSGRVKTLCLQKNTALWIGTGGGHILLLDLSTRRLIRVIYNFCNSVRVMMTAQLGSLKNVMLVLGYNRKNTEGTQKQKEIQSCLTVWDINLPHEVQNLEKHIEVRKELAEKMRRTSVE
# assay-method-text: LRRK2 degradation assay, G2019S LRRK2-HiBit expressed from plasmid in HEK293 cells
# Format: cell-based
# reported-conditions: HEK293 cells transfected with HiBit-tagged G2019S LRRK2, 24 hours compound incubation
Reported Dmax by item:

- molecule: "C[C@H]1CN(c2cc(-c3n[nH]c4ccc(OC5(C)CC5)cc34)ncn2)CCN1CC1CCN(CC2CCN(c3ccc4c(c3)C(=O)N(C3CCC(=O)NC3=O)C4=O)CC2)CC1 (stereo partly shown)"
  Dmax: "≥ 70%"
- molecule: "CC(C)Oc1ccc2[nH]nc(-c3cc(N4CCN(CCOCCOCCOc5ccc6c(c5)C(=O)N(C5CCC(=O)NC5=O)C6=O)[C@@H](C)C4)ncn3)c2c1 (stereo partly shown)"
  Dmax: "< 50%"
- molecule: "C[C@H]1CN(c2cc(-c3n[nH]c4ccc(OC5(C)CC5)cc34)ncn2)CCN1CCOCCOCCOc1ccc2c(c1)C(=O)N(C1CCC(=O)NC1=O)C2=O (stereo partly shown)"
  Dmax: "50 to 70%"
- molecule: "CC(C)Oc1ccc2[nH]nc(-c3cc(N4CCN(CC(F)(F)C5CCN(CC6CCN(c7ccc8c(c7)C(=O)N(C7CCC(=O)NC7=O)C8=O)CC6)CC5)CC4)ncn3)c2c1 (stereo not shown)"
  Dmax: "50 to 70%"
- molecule: "CC(C)Oc1ccc2[nH]nc(-c3cc(N4CCO[C@@H](CN5CCN(CC6CCN(c7ccc8c(c7)C(=O)N(C7CCC(=O)NC7=O)C8=O)CC6)CC5)C4)ncn3)c2c1 (stereo partly shown)"
  Dmax: "50 to 70%"
- molecule: "CC(C)Oc1ccc2[nH]nc(-c3cc(N4CCN(CCN5CC(CN6CCN(c7ccc8c(c7)C(=O)N(C7CCC(=O)NC7=O)C8=O)CC6)C5)CC4)ncn3)c2c1 (stereo not shown)"
  Dmax: "< 50%"
- molecule: "CC(C)Oc1ccc2[nH]nc(-c3cc(N4CCN(CCN5CCC(CN6CCN(c7ccc8c(c7)C(=O)N(C7CCC(=O)NC7=O)C8=O)CC6)CC5)[C@@H](C)C4)ncn3)c2c1 (stereo partly shown)"
  Dmax: "≥ 70%"

---

# maps each entry to its Dmax
# system-name: G2019S LRRK2 (Homo sapiens, UniProt Q5S007, G2019S)
# Construct: expressed in transfected cells; host or cells: HEK293 (ATCC CRL-1573), transient transfection, ubiquitin promoter
# assay-method-text: LRRK2 degradation assay, G2019S LRRK2-HiBit expressed from plasmid in HEK293 cells
# Type: cell-based
# reported-conditions: HEK293 cells transfected with HiBit-tagged G2019S LRRK2, 24 hours compound incubation

- compound: "CC(C)Oc1ccc2[nH]nc(-c3cc(N4CCN(CCN5CCC(CC6CCN(c7ccc8c(c7)C(=O)N(C7CCC(=O)NC7=O)C8=O)CC6)CC5)CC4)ncn3)c2c1 (centres unmarked)"
  Dmax: "50 to 70%"
- compound: "C[C@H]1CN(c2cc(-c3n[nH]c4ccc(OC5(C)CC5)cc34)ncn2)CCN1CCOCCOc1ccc2c(c1)C(=O)N(C1CCC(=O)NC1=O)C2=O (some centres unmarked)"
  Dmax: "< 50%"
- compound: "CC(C)Oc1ccc2[nH]nc(-c3cc(N4CCN(CC5CCN(CC6CCN(c7ccc8c(c7)C(=O)N(C7CCC(=O)NC7=O)C8=O)CC6)CC5)[C@@H](C)C4)ncn3)c2c1 (some centres unmarked)"
  Dmax: "≥ 70%"
- compound: "CC(C)Oc1ccc2[nH]nc(-c3cc(N4CCN(CCN5CC(OCCOc6ccc7c(c6)C(=O)N(C6CCC(=O)NC6=O)C7=O)C5)[C@@H](C)C4)ncn3)c2c1 (some centres unmarked)"
  Dmax: "< 50%"
- compound: "C[C@H]1CN(c2cc(-c3n[nH]c4ccc(OC(C)(C)C)cc34)ncn2)CCN1CCOCCOCCOCCOc1ccc2c(c1)C(=O)N(C1CCC(=O)NC1=O)C2=O (some centres unmarked)"
  Dmax: "< 50%"

---

# DC50 annotations
# system-name: G2019S LRRK2 (Homo sapiens, UniProt Q5S007, G2019S)
# Construct: expressed in transfected cells; host or cells: HEK293 (ATCC CRL-1573), transient transfection, ubiquitin promoter
# assay-method-text: LRRK2 degradation assay, G2019S LRRK2-HiBit expressed from plasmid in HEK293 cells
# Assay type: cell-based
# reported-conditions: HEK293 cells transfected with HiBit-tagged G2019S LRRK2, 24 hours compound incubation
reported-property: DC50

- compound: "CC(C)Oc1ccc2[nH]nc(-c3cc(N4CCO[C@@H](CN5CCN(CC6CCN(c7ccc8c(c7)C(=O)N(C7CCC(=O)NC7=O)C8=O)CC6)CC5)C4)ncn3)c2c1 (stereo partly shown)"
  system-name: "G2019S LRRK2 (Homo sapiens, UniProt Q5S007, G2019S)"
  val: "10 to 50 nM"
- compound: "CC(C)Oc1cc2c(-c3cc(N4CCN(CCOCCOCCOCCOc5ccc6c(c5)C(=O)N(C5CCC(=O)NC5=O)C6=O)[C@@H](C)C4)ncn3)n[nH]c2cc1F (stereo partly shown)"
  system-name: "G2019S LRRK2 (Homo sapiens, UniProt Q5S007, G2019S)"
  val: "≥ 100 nM"
- compound: "CC(C)Oc1ccc2[nH]nc(-c3cc(N4CCN(CCN(C)CCCN5CCN(c6ccc7c(c6)C(=O)N(C6CCC(=O)NC6=O)C7=O)CC5)[C@@H](C)C4)ncn3)c2c1 (stereo partly shown)"
  system-name: "G2019S LRRK2 (Homo sapiens, UniProt Q5S007, G2019S)"
  val: "10 to 50 nM"
- compound: "CC(C)Oc1ccc2[nH]nc(-c3cc(N4CCN(CC[C@H]5CCN(CC6CCN(c7ccc8c(c7)C(=O)N(C7CCC(=O)NC7=O)C8=O)CC6)C5)CC4)ncn3)c2c1 (stereo partly shown)"
  system-name: "G2019S LRRK2 (Homo sapiens, UniProt Q5S007, G2019S)"
  val: "10 to 50 nM"

---

# system-name: wildtype LRRK2 (Homo sapiens)
# Construct: expressed in transfected cells; host or cells: HEK293 (ATCC CRL-1573), transient transfection, ubiquitin promoter
# Sequence (Q5S007 whole entry): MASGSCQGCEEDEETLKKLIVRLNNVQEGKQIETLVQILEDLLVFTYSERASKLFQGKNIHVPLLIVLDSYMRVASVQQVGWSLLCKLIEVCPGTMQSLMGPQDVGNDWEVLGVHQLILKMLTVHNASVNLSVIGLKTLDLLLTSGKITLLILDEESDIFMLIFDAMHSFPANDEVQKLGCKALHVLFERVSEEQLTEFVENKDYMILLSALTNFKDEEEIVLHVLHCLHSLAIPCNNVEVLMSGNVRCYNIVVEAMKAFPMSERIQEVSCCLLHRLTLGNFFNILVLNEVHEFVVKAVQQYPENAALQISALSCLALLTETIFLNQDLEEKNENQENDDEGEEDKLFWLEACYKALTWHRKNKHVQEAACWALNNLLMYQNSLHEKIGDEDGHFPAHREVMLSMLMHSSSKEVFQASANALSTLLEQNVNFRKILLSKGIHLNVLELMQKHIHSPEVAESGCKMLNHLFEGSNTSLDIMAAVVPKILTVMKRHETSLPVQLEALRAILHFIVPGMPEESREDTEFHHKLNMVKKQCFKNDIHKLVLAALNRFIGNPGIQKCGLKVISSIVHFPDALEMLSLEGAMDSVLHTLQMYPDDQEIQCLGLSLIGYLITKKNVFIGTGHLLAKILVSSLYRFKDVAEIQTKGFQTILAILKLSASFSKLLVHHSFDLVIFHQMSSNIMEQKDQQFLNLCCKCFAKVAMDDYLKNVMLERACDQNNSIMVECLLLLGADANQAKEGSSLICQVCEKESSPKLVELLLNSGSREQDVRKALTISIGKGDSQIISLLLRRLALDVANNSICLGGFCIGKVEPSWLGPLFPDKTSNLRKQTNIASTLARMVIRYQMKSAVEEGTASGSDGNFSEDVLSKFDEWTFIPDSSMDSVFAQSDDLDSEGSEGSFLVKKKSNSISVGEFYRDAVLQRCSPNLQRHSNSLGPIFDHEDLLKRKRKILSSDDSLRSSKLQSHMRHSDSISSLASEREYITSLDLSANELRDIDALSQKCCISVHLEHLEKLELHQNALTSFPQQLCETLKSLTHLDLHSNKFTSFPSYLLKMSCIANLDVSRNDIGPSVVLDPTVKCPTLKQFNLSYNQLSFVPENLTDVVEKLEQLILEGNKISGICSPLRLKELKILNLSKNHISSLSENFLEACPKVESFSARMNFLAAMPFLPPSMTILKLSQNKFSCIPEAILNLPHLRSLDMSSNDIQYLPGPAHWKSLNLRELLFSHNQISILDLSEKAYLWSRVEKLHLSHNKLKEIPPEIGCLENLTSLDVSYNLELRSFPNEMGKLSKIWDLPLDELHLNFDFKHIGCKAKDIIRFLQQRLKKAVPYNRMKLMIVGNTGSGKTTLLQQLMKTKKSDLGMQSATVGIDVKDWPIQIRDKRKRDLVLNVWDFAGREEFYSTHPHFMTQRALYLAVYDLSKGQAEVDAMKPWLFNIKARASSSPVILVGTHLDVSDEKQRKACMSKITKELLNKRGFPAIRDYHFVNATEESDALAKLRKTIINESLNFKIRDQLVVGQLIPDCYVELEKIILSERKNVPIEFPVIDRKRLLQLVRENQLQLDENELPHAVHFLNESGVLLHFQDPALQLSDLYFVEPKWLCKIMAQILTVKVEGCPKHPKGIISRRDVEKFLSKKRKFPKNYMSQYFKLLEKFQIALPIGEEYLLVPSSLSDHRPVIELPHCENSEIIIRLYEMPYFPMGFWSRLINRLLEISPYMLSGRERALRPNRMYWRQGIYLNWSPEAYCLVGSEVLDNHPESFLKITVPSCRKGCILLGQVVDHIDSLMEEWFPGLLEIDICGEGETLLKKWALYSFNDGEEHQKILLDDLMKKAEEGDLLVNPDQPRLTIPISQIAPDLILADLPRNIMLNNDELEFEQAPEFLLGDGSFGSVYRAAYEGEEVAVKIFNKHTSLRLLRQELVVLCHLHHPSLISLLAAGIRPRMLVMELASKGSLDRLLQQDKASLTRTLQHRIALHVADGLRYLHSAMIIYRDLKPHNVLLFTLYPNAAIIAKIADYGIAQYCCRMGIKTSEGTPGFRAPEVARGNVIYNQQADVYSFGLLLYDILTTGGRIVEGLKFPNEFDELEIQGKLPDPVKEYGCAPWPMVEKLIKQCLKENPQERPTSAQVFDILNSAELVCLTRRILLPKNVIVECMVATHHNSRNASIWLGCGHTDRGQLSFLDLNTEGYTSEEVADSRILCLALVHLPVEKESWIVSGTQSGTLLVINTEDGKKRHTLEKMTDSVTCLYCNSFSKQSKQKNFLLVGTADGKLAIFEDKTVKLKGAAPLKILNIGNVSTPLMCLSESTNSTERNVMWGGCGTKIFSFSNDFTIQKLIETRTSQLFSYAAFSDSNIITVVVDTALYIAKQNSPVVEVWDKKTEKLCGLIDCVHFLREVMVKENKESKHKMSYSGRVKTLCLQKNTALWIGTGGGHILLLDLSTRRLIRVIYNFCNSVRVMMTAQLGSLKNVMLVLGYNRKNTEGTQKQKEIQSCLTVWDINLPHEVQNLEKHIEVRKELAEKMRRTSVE
# assay-method-text: LRRK2 degradation assay, wildtype LRRK2-HiBit expressed from plasmid in HEK293 cells
# Format: cell-based
# reported-conditions: HEK293 cells transfected with HiBit-tagged wildtype LRRK2, 24 hours compound incubation; read-out: **WT Dmax (%)
Dmax: recorded values

- molecule: "C[C@H]1CN(c2cc(-c3n[nH]c4ccc(OC5(C)CC5)cc34)ncn2)CCN1CCOCCOCCOCCOc1ccc(C(=O)NC2CCC(=O)NC2=O)c(F)c1 (stereo partly shown) [compound 13]"
  Dmax: "< 50%"
- molecule: "CC(C)Oc1ccc2[nH]nc(-c3cc(N4CCN(CCN5CCN(CC6CCN(c7ccc8c(c7)C(=O)N(C7CCC(=O)NC7=O)C8=O)CC6)CC5)[C@@H](C)C4)ncn3)c2c1 (stereo partly shown) [compound 26]"
  Dmax: "≥ 70%"
- molecule: "C[C@@H]1CN(c2cc(-c3n[nH]c4ccc(OC5(C)CC5)cc34)ncn2)C[C@H](C)N1CCOCCOCCOCCOc1ccc2c(c1)C(=O)N(C1CCC(=O)NC1=O)C2=O (stereo partly shown) [compound 7]"
  Dmax: "≥ 70%"
- molecule: "CC(C)Oc1ccc2[nH]nc(-c3cc(N4CCN(CCCCN5CCN(c6ccc7c(c6)C(=O)N(C6CCC(=O)NC6=O)C7=O)CC5)[C@@H](C)C4)ncn3)c2c1 (stereo partly shown) [compound 23]"
  Dmax: "50 to 70%"

---

# system-name: G2019S LRRK2 (Homo sapiens, UniProt Q5S007, G2019S)
# Construct: expressed in transfected cells; host or cells: HEK293 (ATCC CRL-1573), transient transfection, ubiquitin promoter
# assay-method-text: LRRK2 degradation assay, G2019S LRRK2-HiBit expressed from plasmid in HEK293 cells
# Format: cell-based
# reported-conditions: HEK293 cells transfected with HiBit-tagged G2019S LRRK2, 24 hours compound incubation
Reported DC50 by item:
reported-property: DC50

- compound: "CC(C)Oc1ccc2[nH]nc(-c3cc(N4CCN(CCN5CC(C6CCN(c7ccc8c(c7)C(=O)N(C7CCC(=O)NC7=O)C8=O)CC6)C5)CC4)ncn3)c2c1 (stereo not shown)"
  val: "10 to 50 nM"
- compound: "CC(C)Oc1ccc2[nH]nc(-c3cc(N4CCN(CCN5CC6(CN(CCOc7ccc8c(c7)C(=O)N(C7CCC(=O)NC7=O)C8=O)C6)C5)[C@@H](C)C4)ncn3)c2c1 (stereo partly shown)"
  val: "50 to 100 nM"
- compound: "CC(C)Oc1ccc2[nH]nc(-c3cc(N4CCN(CCN(C)CCN5CCN(c6ccc7c(c6)C(=O)N(C6CCC(=O)NC6=O)C7=O)CC5)[C@@H](C)C4)ncn3)c2c1 (stereo partly shown)"
  val: "50 to 100 nM"
- compound: "CC1(Oc2ccc3[nH]nc(-c4cc(N5CCO[C@@H](CCOCCOCCOCCOc6ccc7c(c6)C(=O)N(C6CCC(=O)NC6=O)C7=O)C5)ncn4)c3c2)CC1 (stereo partly shown)"
  val: "< 10 nM"
- compound: "C[C@H]1CN(c2cc(-c3n[nH]c4ccc(OC5(C)CC5)cc34)ncn2)CCN1CCOCCOCCOc1ccc2c(c1)C(=O)N(C1CCC(=O)NC1=O)C2=O (stereo partly shown)"
  val: "10 to 50 nM"
- compound: "CC(C)Oc1ccc2[nH]nc(-c3cc(N4CCN(CCN5CC(OCCOc6ccc7c(c6)C(=O)N(C6CCC(=O)NC6=O)C7=O)C5)[C@@H](C)C4)ncn3)c2c1 (stereo partly shown)"
  val: "≥ 100 nM"
- compound: "C[C@H]1CN(c2cc(-c3n[nH]c4ccc(OC5(C)CC5)cc34)ncn2)CCN1CCN1CCC(CN2CCN(c3ccc4c(c3)C(=O)N(C3CCC(=O)NC3=O)C4=O)CC2)CC1 (stereo partly shown)"
  val: "< 10 nM"
- compound: "C[C@H]1CN(c2cc(-c3n[nH]c4ccc(OC5(C)CC5)cc34)ccn2)CCN1CCOCCOCCOCCOc1ccc2c(c1)C(=O)N(C1CCC(=O)NC1=O)C2=O (stereo partly shown)"
  val: "< 10 nM"
- compound: "C[C@H]1CN(c2cc(-c3n[nH]c4ccc(OC5(C)CC5)cc34)ncn2)CCN1CC1CCN(CC2CCN(c3ccc4c(c3)C(=O)N(C3CCC(=O)NC3=O)C4=O)CC2)CC1 (stereo partly shown)"
  val: "< 10 nM"
- compound: "C[C@H]1CN(c2cc(-c3n[nH]c4ccc(OC5(C)CC5)cc34)ncn2)CCN1CCOC1CCN(CC2CCN(c3ccc4c(c3)C(=O)N(C3CCC(=O)NC3=O)C4=O)CC2)CC1 (stereo partly shown)"
  val: "< 10 nM"
